The values you see were collected from patent US10544130B2.

// reported Serratia marcescens (IMP-1) MITC95 for each item listed
Tested on: Serratia marcescens expressing IMP-1 (CL5741)
Format: cell-based
Settings: with imipenem 1 μg/ml; 95% inhibition of bacterial growth
Protocol: Antibiotic Potentiation Activity: Determination of Synergistic Concentration The bacterial strains tested included the clinical strains Escherichia coli expressing NDM-1 (CLB30005, CLB30016), Serratia marcescens expressing IMP-1 (CL5741), and Klebsiella pneumoniae expressing VIM-1 (IHMA599644). Inhibitor activity was measured in the presence and absence of imipenem in a 384-well microplate. […]
Field format: number, assumed µM, no unit text.

NCCNCCNS(=O)(=O)c1ccc(-c2ccc(N)nc2)c(-c2nn[nH]n2)c1S(N)(=O)=O [Example 482] : 0.7813
NS(=O)(=O)c1c(S(=O)(=O)N[C@@H]2CNC[C@@H]2O)ccc(-c2cccc3[nH]nnc23)c1-c1nn[nH]n1 [Example 412] : 3.125
NCCNC(=O)c1cc(Cl)cc(-c2ccc(S(=O)(=O)N[C@@H]3CCNC3)c(S(N)(=O)=O)c2-c2nn[nH]n2)c1N [Example 450] : 1.563
NCCNC(=O)c1cccc(-c2ccc(S(=O)(=O)NCCN)c(S(N)(=O)=O)c2-c2nn[nH]n2)c1 [Example 334] : 0.7813

Next up:
Could you share which Serratia marcescens (IMP-1) MITC95 value was measured for NC[C@@H](CO)NS(=O)(=O)c1ccc(-c2ccnc(N)c2)c(-c2nn[nH]n2)c1S(N)(=O)=O [Example 380] ?
0.7813

====

Test system: Serratia marcescens expressing IMP-1 (CL5741)
Format: cell-based
Conditions: with imipenem 1 μg/ml; 95% inhibition of bacterial growth
// reported Serratia marcescens (IMP-1) MITC95 for each item listed
Field format: number, assumed µM, no unit text.

Please review the entries below; each comes with its answer.
NCCNS(=O)(=O)c1ccc(-c2cccc(-c3c[nH]c(N)n3)c2)c(-c2nn[nH]n2)c1S(N)(=O)=O : 0.7813
NCC(CO)(CO)NS(=O)(=O)c1ccc(-c2cccc3[nH]c(N)nc23)c(-c2nn[nH]n2)c1S(N)(=O)=O : 1.563
Nc1nc2c(-c3ccc(S(=O)(=O)NC[C@]4(N)CCNC4)c(S(N)(=O)=O)c3-c3nn[nH]n3)cccc2s1 : 1.563

Next up:
Could you share which Serratia marcescens (IMP-1) MITC95 value was measured for NCc1ncc(-c2cccc(-c3ccc(S(=O)(=O)N[C@@H]4CCNC4)c(S(N)(=O)=O)c3-c3nn[nH]n3)c2)[nH]1 ?
0.7813

====

Tested on: Pseudomonas aeruginosa PAO1 MB9798 (efflux+, IMP-1)
Settings: ratio MITC95 PA 9798/MITC95 PA 9799; imipenem at 2 μg/mL
MEASURED_ATTRIBUTE: Efflux ratio
// print number alone

N[C@H](CO)c1nc2c(-c3ccc(S(=O)(=O)N[C@H]4CNC[C@H]4N)c(S(N)(=O)=O)c3-c3nn[nH]n3)cccc2[nH]1 : 1.00
NCCNS(=O)(=O)c1ccc(C2=CC(N)CCC2)c(-c2nn[nH]n2)c1S(N)(=O)=O (stereo not drawn) : 4.00
NC(=O)c1nc2c(-c3ccc(S(=O)(=O)N[C@H]4CCNC4)c(S(N)(=O)=O)c3-c3nn[nH]n3)cccc2[nH]1 : 0.50
NCCNS(=O)(=O)c1ccc(-c2cccc3[nH]c([C@H](N)CO)nc23)c(-c2nn[nH]n2)c1S(N)(=O)=O : 1.00
CN(C)CCCN(C)S(=O)(=O)c1ccc(-c2cccc3sc(N)nc23)c(-c2nnn[nH]2)c1S(N)(=O)=O : 2.00
Nc1nc2c(-c3ccc(S(=O)(=O)N4CC(N)C4)c(S(N)(=O)=O)c3-c3nn[nH]n3)cccc2s1 : 1.00

Could you share which Efflux ratio value was measured for Nc1nc2c(-c3ccc(S(=O)(=O)NC[C@H](N)CO)c(S(N)(=O)=O)c3-c3nn[nH]n3)cccc2[nH]1 ?
1.00

Could you share which Efflux ratio value was measured for N[C@@H](CO)CNS(=O)(=O)c1ccc(-c2cccc(C3N=CN=N3)c2)c(-c2nn[nH]n2)c1S(N)(=O)=O (stereo partly drawn) ?
2.00

Could you share which Efflux ratio value was measured for NCc1nc2c(-c3ccc(S(=O)(=O)NC[C@H](O)CN)c(S(N)(=O)=O)c3-c3nn[nH]n3)cccc2s1 ?
1.00

Could you share which Efflux ratio value was measured for Nc1nc2c(-c3ccc(S(=O)(=O)N[C@H]4CO[C@H]5[C@@H]4OC[C@H]5N)c(S(N)(=O)=O)c3-c3nnn[nH]3)cccc2s1.O=C(O)C(F)(F)F ?
2.00

Could you share which Efflux ratio value was measured for NS(=O)(=O)c1c(S(=O)(=O)N[C@@H]2CCNC2)ccc(-c2ccc3nonc3c2)c1-c1nnn[nH]1 ?
8.00

====

// reported Serratia marcescens (IMP-1) MITC95 for each item listed
Test system: Serratia marcescens expressing IMP-1 (CL5741)
Format: cell-based
Conditions: with imipenem 1 μg/ml; 95% inhibition of bacterial growth
Field format: number, assumed µM, no unit text.

NCC(F)(F)c1nc2c(-c3ccc(S(=O)(=O)N[C@H]4CCNC4)c(S(N)(=O)=O)c3-c3nn[nH]n3)cccc2[nH]1 : 3.125
NCCNCc1sc(N)nc1-c1cccc(-c2ccc(S(=O)(=O)N[C@@H]3CCNC3)c(S(N)(=O)=O)c2-c2nnn[nH]2)c1 : 1.563
Nc1ncc(-c2ccc(S(=O)(=O)N[C@@H]3CCNC3)c(S(N)(=O)=O)c2-c2nn[nH]n2)s1 : 0.7813
NC[C@@H](CO)NS(=O)(=O)c1ccc(-c2ccc(N)nc2)c(-c2nn[nH]n2)c1S(N)(=O)=O : 1.563
NS(=O)(=O)c1c(S(=O)(=O)N[C@@H]2CCNC2)ccc(-c2cccc(Nc3nc(CO)cs3)c2)c1-c1nn[nH]n1 : 1.563

Could you share which Serratia marcescens (IMP-1) MITC95 value was measured for NCc1nc2c(-c3ccc(S(=O)(=O)NC(CN)CN)c(S(N)(=O)=O)c3-c3nn[nH]n3)cccc2[nH]1 ?
0.7813

Could you share which Serratia marcescens (IMP-1) MITC95 value was measured for NCC(CN)NS(=O)(=O)c1ccc(-c2cccc(-c3c[nH]c(N)n3)c2)c(-c2nn[nH]n2)c1S(N)(=O)=O ?
3.125

====

Test system: Pseudomonas aeruginosa PAO1 MB9798 (efflux+, IMP-1)
Conditions: ratio MITC95 PA 9798/MITC95 PA 9799; imipenem at 2 μg/mL
// reported Efflux ratio for each item listed

NCCNS(=O)(=O)c1ccc(-c2cccc3[nH]c(CN)nc23)c(-c2nn[nH]n2)c1S(N)(=O)=O : 1.00
NCCNS(=O)(=O)c1ccc(-c2cccc3oc(C(=O)O)nc23)c(-c2nn[nH]n2)c1S(N)(=O)=O : 2.00
C[C@@H](CN)NS(=O)(=O)c1ccc(-c2cccc3[nH]c(N)nc23)c(-c2nn[nH]n2)c1S(N)(=O)=O : 2.00
Nc1nc(-c2cccc(-c3ccc(S(=O)(=O)N[C@H]4CCNC4)c(S(N)(=O)=O)c3-c3nn[nH]n3)c2)c[nH]1 : 2.00
COc1ccnc(CNS(=O)(=O)c2ccc(-c3cccc4sc(N)nc34)c(-c3nnn[nH]3)c2S(N)(=O)=O)n1 : 4.00

Could you share which Efflux ratio value was measured for Cl.Cn1c(N)nc2c(-c3ccc(S(=O)(=O)NCCN)c(S(N)(=O)=O)c3-c3nn[nH]n3)cccc21 ?
1.00

Could you share which Efflux ratio value was measured for NCc1nc2c(-c3ccc(S(=O)(=O)NC[C@@H](O)CN)c(S(N)(=O)=O)c3-c3nn[nH]n3)cccc2[nH]1 ?
1.00

Could you share which Efflux ratio value was measured for NCC(F)(F)CNS(=O)(=O)c1ccc(-c2cccc3sc(N)nc23)c(-c2nnn[nH]2)c1S(N)(=O)=O ?
1.00

Could you share which Efflux ratio value was measured for NS(=O)(=O)c1c(S(=O)(=O)N[C@@H]2CCNC2)ccc(-c2cccc3ncccc23)c1-c1nn[nH]n1 ?
1.00

Could you share which Efflux ratio value was measured for Nc1nc(-c2cccc(-c3ccc(S(=O)(=O)N[C@@H]4CCNC4)c(S(N)(=O)=O)c3-c3nn[nH]n3)c2)n[nH]1 ?
1.00

====

// reported Efflux ratio for each item listed
Test system: Pseudomonas aeruginosa PAO1 MB9798 (efflux+, IMP-1)
Details: ratio MITC95 PA 9798/MITC95 PA 9799; imipenem at 2 μg/mL
// print number alone

Nc1nc2c(-c3ccc(S(=O)(=O)NCCC(N)C(F)(F)F)c(S(N)(=O)=O)c3-c3nnn[nH]3)cccc2s1 (stereo not shown) [Example 49] : 8.00
CCC1(NS(=O)(=O)c2ccc(-c3cccc4sc(N)nc34)c(-c3nnn[nH]3)c2S(N)(=O)=O)CCNC1 (stereo not shown) [Example 56] : 1.00

Could you share which Efflux ratio value was measured for NS(=O)(=O)c1c(S(=O)(=O)N[C@@H]2CCNC2)ccc(-c2cccc3c2OC(F)(F)O3)c1-c1nnn[nH]1 [Example 131] ?
16.00

Could you share which Efflux ratio value was measured for C[C@H](N)CNS(=O)(=O)c1ccc(-c2cccc3[nH]c(N)nc23)c(-c2nn[nH]n2)c1S(N)(=O)=O [Example 184] ?
1.00

Could you share which Efflux ratio value was measured for NS(=O)(=O)c1c(S(=O)(=O)N[C@@H]2CCNC2)ccc(-c2cnc3ccccn23)c1-c1nnn[nH]1 [Example 140] ?
2.00

Could you share which Efflux ratio value was measured for NCC(CN)NS(=O)(=O)c1ccc(-c2cccn3ccnc23)c(-c2nn[nH]n2)c1S(N)(=O)=O [Example 386] ?
1.00

Could you share which Efflux ratio value was measured for NS(=O)(=O)c1c(S(=O)(=O)N[C@@H]2CCNC2)ccc(-c2cccc3nonc23)c1-c1nn[nH]n1 [Example 238] ?
4.00

Could you share which Efflux ratio value was measured for CC(C)(N)CNS(=O)(=O)c1ccc(-c2cccc3sc(N)nc23)c(-c2nnn[nH]2)c1S(N)(=O)=O [Example 87] ?
0.50

Could you share which Efflux ratio value was measured for Nc1nc2c(-c3ccc(S(=O)(=O)NC4C5CNCC54)c(S(N)(=O)=O)c3-c3nnn[nH]3)cccc2s1.O=C(O)C(F)(F)F (stereo not shown) [Example 111] ?
0.50

Could you share which Efflux ratio value was measured for Nc1nc2cccc(-c3ccc(S(=O)(=O)N4CCNCC4)c(S(N)(=O)=O)c3-c3nn[nH]n3)c2[nH]1 [Example 157] ?
4.00

Could you share which Efflux ratio value was measured for NCCNS(=O)(=O)c1ccc(-c2cccc(-c3n[nH]c(N)n3)c2)c(-c2nn[nH]n2)c1S(N)(=O)=O [Example 228] ?
1.00

Could you share which Efflux ratio value was measured for NCCNS(=O)(=O)c1ccc(-c2cccc3[nH]c([C@H](N)CN)nc23)c(-c2nn[nH]n2)c1S(N)(=O)=O [Example 335] ?
2.00
